The reported numbers originate from the RNAGym collection of RNA variant scans (doi:10.1093/molbev/msab373).

B1: Azoarcus group I ribozyme (parent)
chain: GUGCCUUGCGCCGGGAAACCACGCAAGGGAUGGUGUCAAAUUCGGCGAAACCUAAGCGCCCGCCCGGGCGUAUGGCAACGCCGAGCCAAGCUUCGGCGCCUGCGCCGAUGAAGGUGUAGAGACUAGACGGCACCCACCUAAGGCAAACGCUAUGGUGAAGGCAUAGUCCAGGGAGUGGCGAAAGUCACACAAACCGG

variants of: B1; test: reverse-splicing fitness (ratio to wild type); higher = more active; in vitro selection; Mg2+ level not given
# cutoff 0.01 applies to reverse-splicing fitness; >= gives TRUE, < gives FALSE

mutant="A145U U176G" classname=TRUE
mutant="A111U A120U A145G C150G C169A" classname=FALSE
mutant="A111C A120U C150U C169G U176G" classname=FALSE
mutant="C82G A120C A145C C150U C169G U176C" classname=TRUE
mutant="C82U A111U A120U A145U C169A" classname=FALSE

Pending variant:
Hello, I need to know if A111C A120C A145C C150G C169A U176G has measured reverse-splicing fitness not below 0.01. Thanks! FALSE
